Biological target: human ADAMTS-5 (Homo sapiens (Human), UniProt Q9UNA0)
Sequence (Q9UNA0 262-930): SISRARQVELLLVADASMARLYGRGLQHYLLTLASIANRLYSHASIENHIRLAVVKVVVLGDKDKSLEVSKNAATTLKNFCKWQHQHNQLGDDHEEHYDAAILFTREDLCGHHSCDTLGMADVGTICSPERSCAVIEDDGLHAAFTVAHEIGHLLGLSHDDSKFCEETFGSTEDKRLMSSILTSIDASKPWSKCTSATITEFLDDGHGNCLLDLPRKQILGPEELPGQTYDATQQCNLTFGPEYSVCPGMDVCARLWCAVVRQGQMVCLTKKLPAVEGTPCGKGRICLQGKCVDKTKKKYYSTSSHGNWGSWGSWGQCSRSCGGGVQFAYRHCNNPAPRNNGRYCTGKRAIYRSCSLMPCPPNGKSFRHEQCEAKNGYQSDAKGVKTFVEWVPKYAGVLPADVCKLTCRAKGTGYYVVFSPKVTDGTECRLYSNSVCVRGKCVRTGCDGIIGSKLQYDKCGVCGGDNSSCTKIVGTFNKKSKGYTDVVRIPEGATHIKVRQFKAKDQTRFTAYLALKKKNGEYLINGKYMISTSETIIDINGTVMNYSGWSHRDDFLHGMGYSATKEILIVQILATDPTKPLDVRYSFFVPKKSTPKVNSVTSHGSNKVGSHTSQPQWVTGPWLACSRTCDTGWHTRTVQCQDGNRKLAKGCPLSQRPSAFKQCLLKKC
Assay: hADAMTS-5 TBIS-1 cleavage assay, Protocol 3
Assay type: biochemical
Conditions: 90 min at 37° C., read-out: hADAMTS-5 potency IC50
pIC50: −log10 of the molar value.
OBSERVATION TYPE: pIC50

Illustrative cases are given below, each with its answer.
>>> assay_value("COc1cc(N2CCN(C(=O)CC[C@H]3NC(=O)NC3=O)C[C@@H]2C)ccc1Cl [Cpd 133]")
"< 7.00"
>>> assay_value("COc1cc(N2CCN(C(=O)CC[C@H]3NC(=O)NC3=O)CC2)cc(Cl)c1F [Cpd 147]")
"< 7.00"
>>> assay_value("COc1cc(N2CCN(C(=O)CC[C@@]3(C)NC(=O)NC3=O)C[C@@H]2C)cc(C)c1Cl [Cpd 105]")
"< 7.00"

I'd like to know its pIC50. The molecule in question is COc1cc(N2CCN(C(=O)CCC3(C4CC4)NC(=O)NC3=O)CC2)cc(F)c1F (stereo not shown) [Cpd 18]
7.00 to 7.30

I'd like to know its pIC50. The molecule in question is COc1cc(N2CCN(C(=O)CC[C@H]3NC(=O)NC3=O)C[C@@H]2C)cc(OC)c1Cl [Cpd 139]
< 7.00

I'd like to know its pIC50. The molecule in question is COc1cc(N2CCN(C(=O)CCC3(C)NC(=O)NC3=O)C[C@@H]2C)cc(OC)c1Cl (stereo partly shown) [Cpd 30]
< 7.00
